TESTED SYSTEM: Neuronal acetylcholine receptor subunit alpha-3/beta-2 (Rattus norvegicus, UniProt P12390+P04757)
Sequence (P12390 whole entry): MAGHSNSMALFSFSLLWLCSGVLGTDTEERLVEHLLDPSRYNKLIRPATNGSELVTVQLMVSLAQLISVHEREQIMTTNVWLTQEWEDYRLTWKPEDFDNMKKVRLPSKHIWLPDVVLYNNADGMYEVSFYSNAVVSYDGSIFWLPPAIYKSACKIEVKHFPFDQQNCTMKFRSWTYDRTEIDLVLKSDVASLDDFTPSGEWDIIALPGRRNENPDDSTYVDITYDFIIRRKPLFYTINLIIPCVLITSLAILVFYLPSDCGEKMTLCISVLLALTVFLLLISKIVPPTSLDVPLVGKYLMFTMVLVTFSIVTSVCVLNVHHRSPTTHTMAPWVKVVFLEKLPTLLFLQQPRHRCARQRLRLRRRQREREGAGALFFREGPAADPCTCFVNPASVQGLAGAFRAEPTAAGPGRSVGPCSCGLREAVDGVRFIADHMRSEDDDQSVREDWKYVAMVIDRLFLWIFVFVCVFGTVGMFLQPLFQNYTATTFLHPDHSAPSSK
Sequence (P04757 whole entry): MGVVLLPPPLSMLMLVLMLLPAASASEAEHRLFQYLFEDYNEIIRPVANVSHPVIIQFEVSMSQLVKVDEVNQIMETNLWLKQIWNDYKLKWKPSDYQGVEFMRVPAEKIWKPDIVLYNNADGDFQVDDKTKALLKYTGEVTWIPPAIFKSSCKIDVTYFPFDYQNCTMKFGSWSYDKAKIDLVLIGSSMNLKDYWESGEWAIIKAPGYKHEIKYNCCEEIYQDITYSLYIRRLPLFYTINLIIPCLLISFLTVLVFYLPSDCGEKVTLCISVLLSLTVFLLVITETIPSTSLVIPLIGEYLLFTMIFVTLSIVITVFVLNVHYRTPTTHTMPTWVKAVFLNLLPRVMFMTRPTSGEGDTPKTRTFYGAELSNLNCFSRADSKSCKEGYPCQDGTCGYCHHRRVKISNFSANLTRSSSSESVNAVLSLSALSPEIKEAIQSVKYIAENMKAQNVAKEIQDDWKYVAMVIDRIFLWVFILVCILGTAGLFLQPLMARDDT
ASSAY REMARKS: Binding affinity towards rat Nicotinic acetylcholine receptor alpha3-beta2 expressed in Xenopus oocytes using [3H]epibatidine as radioligand
ATTRIBUTE MEASURED: pKi
Units for pKi: none; it is -log10 of a concentration expressed in mol/L.

Report pKi for Fc1ccc(C2CC3CCC2N3)cn1 (stereo unspecified) please.
11.40
